system-tested: UniProtKB O60674
Sequence (O60674 849-1124): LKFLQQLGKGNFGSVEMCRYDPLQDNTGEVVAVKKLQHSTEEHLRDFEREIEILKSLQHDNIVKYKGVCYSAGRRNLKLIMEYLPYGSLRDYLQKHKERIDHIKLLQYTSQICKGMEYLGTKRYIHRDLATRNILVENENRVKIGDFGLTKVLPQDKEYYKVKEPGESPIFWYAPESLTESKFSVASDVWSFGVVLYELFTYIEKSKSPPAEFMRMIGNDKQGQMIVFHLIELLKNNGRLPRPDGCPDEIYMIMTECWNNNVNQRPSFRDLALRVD
experiment-notes: Jak Biochemical HTRF Assay (JAK2)
details: JAK2 IC50, recombinant GST-tagged catalytic domain, [ATP] 8.5 μM, unit not given (compound concentrations tested given in nM)
experimental-readout: IC50 (nM)

// below: answered molecules
| molecule | IC50, nM |
| --- | --- |
| N#C[C@H]1CCOC[C@@H]1n1nc(Nc2ccc(C(N3CCNCC3)C(F)(F)F)cc2)c2c(=O)[nH]ccc21 (single isomer, unassigned) [Example 1-38] | 0.13 |
| CC(C)(C)CNC(c1ccc(Nc2nn([C@H]3COCC[C@@H]3C#N)c3cc[nH]c(=O)c23)cc1)C(F)(F)F (single isomer, unassigned) [Example 1-82] | 2.56 |
| CC1c2cc(Nc3nn([C@H]4COCC[C@@H]4C#N)c4cc[nH]c(=O)c34)ccc2S(=O)(=O)N1C (single isomer, unassigned) [Example 1-34] | 1.18 |
| N#C[C@H]1CCOC[C@@H]1n1nc(Nc2ccc(C(NC3CCCC3)C(F)(F)F)cc2)c2c(=O)[nH]ccc21 (single isomer, unassigned) [Example 1-84] | 0.15 |

A = CC1CCCN1C(c1ccc(Nc2nn([C@H]3COCC[C@@H]3C#N)c3cc[nH]c(=O)c23)cc1)C(F)(F)F (single isomer, unassigned) [Example 1-89]
B = CC(O)(c1ccc(Nc2nn([C@H]3COCC[C@@H]3C#N)c3cc[nH]c(=O)c23)cc1)C(F)(F)F (single isomer, unassigned) [Example 2-4]
C = CN(C)C(c1ccc(Nc2nn([C@H]3COCC[C@@H]3C#N)c3cc[nH]c(=O)c23)cc1)C(F)(F)F (single isomer, unassigned) [Example 1-59]
D = CC(C)(C)OC(=O)CNC(c1ccc(Nc2nn([C@H]3COCC[C@@H]3C#N)c3cc[nH]c(=O)c23)cc1)C(F)(F)F (single isomer, unassigned) [Example 1-40]
In: Could you please sort these 4 entries by IC50 from high to low? Put the labels in the requested order and write them down.
Out: D, B, A, C
